For each of the compounds below, state its ALP Activity (1000 × A405 ± SD) BMP Addition.
- System: Mouse-derived MC3T3-E1 osteoblast cells
- Experiment notes: Induction of alkaline phosphatase (ALP) production in mouse osteoblastic cells, with or without 3 ng/ml BMP-4/7 heterodimer
- Format: cell-based
- Condition context: compound 0.1 μM, medium with 3 ng/ml BMP-4/7 heterodimer, 72 hours
Marks after values point to notes of the source that are not given here.

Suppose we examine the compound CNC(=O)c1cc2ccc3c(c2c(-c2ccc(F)cc2)c1CO)OCO3 [Example 5] ; what ALP Activity (1000 × A405 ± SD) BMP Addition value has been reported?
237 ± 14* 1000 × A405

// lookup ALP Activity (1000 × A405 ± SD) BMP Addition for CNC(=O)c1cc2ccc3c(c2c(-c2ccc(OC)cc2)c1CO)OCO3 [Example 2]
354 ± 15* 1000 × A405

// ALP Activity (1000 × A405 ± SD) BMP Addition lookup, key: Cc1c(C(N)=O)nc2ccc3c(c2c1-c1ccc2c(c1)OCO2)OCO3 [Example 22]
226 ± 6* 1000 × A405

Endpoint output: ALP Activity (1000 × A405 ± SD) BMP Addition of CNC(=O)c1cc2ccc3c(c2c(-c2ccc4ccccc4c2)c1CO)OCO3 [Example 4] . Value?
389 ± 25* 1000 × A405

I'd like to know its ALP Activity (1000 × A405 ± SD) BMP Addition. The compound in question is NC(=O)c1nc2ccc3c(c2c(-c2ccc4c(c2)OCO4)c1CO)OCO3 [Example 8]
477 ± 15* 1000 × A405

Looking for the measured ALP Activity (1000 × A405 ± SD) BMP Addition of CNC(=O)c1cc2ccc3c(c2c(-c2ccc4c(c2)OCO4)c1CO)OCO3 [Example 1] , can you help?
213 ± 5* 1000 × A405

Look up ALP Activity (1000 × A405 ± SD) BMP Addition: CNC(=O)c1cc2ccc3c(c2c(-c2ccc(C)cc2)c1CO)OCO3 [Example 6]
248 ± 6* 1000 × A405
